Just for reference, the supplement of paper PMC3545927 is where these values come from.

- subject of test: furin, P09958
- Sequence (P09958 whole entry): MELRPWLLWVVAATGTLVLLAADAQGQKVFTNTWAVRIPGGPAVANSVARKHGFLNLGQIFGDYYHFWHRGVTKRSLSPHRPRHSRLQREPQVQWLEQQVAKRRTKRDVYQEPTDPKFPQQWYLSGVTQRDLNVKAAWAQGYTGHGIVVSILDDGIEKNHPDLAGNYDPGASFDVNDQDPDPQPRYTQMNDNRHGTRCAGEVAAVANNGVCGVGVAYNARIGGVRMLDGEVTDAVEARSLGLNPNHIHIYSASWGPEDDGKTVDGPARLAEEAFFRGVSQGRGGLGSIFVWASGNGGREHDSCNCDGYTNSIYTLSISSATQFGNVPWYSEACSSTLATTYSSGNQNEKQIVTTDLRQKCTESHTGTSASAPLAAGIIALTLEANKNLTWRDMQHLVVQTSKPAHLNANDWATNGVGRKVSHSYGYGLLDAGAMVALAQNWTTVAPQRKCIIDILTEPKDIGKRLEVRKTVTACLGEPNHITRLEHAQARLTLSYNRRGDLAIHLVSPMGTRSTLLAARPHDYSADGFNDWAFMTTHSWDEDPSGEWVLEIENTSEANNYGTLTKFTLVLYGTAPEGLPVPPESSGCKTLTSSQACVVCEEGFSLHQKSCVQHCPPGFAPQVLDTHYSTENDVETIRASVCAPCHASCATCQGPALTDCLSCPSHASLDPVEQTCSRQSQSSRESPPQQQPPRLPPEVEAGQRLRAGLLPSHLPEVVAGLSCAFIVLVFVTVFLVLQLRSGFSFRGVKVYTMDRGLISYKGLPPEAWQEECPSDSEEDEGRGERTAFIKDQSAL
- protocol: furin cleavage Z-score vs untreated control; higher = more cleavage, active = 3.5 or more, inactive = 1 or less, 8 variable residues between constant flanks;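 note: purified furin at 1:10 enzyme:substrate in 50 mM HEPES pH 7.5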
- measurement context: 15 min
The list shows a part of the results. How many sequences the whole screen found active is unknown.
Field: furin cleavage Z-score. Provide a value for each of the sequences that follow.
One number for each entry.

Consider the worked cases shown below.
Which furin cleavage Z-score value is on record for CARPRRPNGDAGNASASA [FS-1913] ?
-0.812

Which furin cleavage Z-score value is on record for CAGRSEFKRCAGNASASA [FS-1331] ?
-0.736

Which furin cleavage Z-score value is on record for CASLDPTFTIAGNASASA [HC893] ?
-1.75

Which furin cleavage Z-score value is on record for CAENLRKRRDAGNASASA [FS-585] ?
14.1

Which furin cleavage Z-score value is on record for CARCQRDAMCAGNASASA [FS-2651] ?
0.877

Parameters: items (list). Returns: furin cleavage Z-score for each item.
1. CACRKRRKRCAGNASASA [FS-17]
2. CAEMPRDRRRAGNASASA [FS-325]
3. CAMEECSAHLAGNASASA [HC1723]
4. CAGEVQIVSTAGNASASA [HC689]
5. CASHITAEAAAGNASASA [HC1250]

0.934
-0.519
1.94
0.651
-1.71

Parameters: items (list). Returns: furin cleavage Z-score for each item.
1. CAENKVVILDAGNASASA [HC1284]
2. CARLEVVTSTAGNASASA [HC2273]
3. CAVRNRRKRKAGNASASA [FS-1434]

1. 0.132
2. 1.11
3. 9.19

Parameters: items (list). Returns: furin cleavage Z-score for each item.
1. CAGWSRARRDAGNASASA [FS-334]
2. CAEFTTPCSGAGNASASA [HC1967]

12.4
-0.681
